System: Pseudomonas aeruginosa BA 2 Leo strain
ASSAY COMMENT: Antibacterial activity, 50% inhibition of growth, Pseudomonas aeruginosa BA 2 Leo strain
Format: cell-based
PROTOCOL CONDITIONS: BA2LEOSTRAIN, read-out: IC50 (concentration required for a 50% inhibition of growth)
Structures can show the parent of a compound that is named as a salt.
# IC50 per entry
QUANTITY MEASURED: IC50 (µg/mL)

* CC(C)(C)C(=O)OCOC(=O)[C@@H]1N2C(=O)[C@@H](N=CN3CCCC(C(CN)CN)CC3)[C@H]2SC1(C)C (stereo partly shown) [Example 28F, trihydrochloride] | 20
* CC1(C)S[C@@H]2[C@H](N=CN3CCC(CCCN)CC3)C(=O)N2[C@H]1C(=O)O [EB 686, monohydrochloride] | 16
